These data points were gathered from patent USRE46630E1.

Target: Human neutrophil elastase (Homo sapiens)
Sequence (P08246 30-267): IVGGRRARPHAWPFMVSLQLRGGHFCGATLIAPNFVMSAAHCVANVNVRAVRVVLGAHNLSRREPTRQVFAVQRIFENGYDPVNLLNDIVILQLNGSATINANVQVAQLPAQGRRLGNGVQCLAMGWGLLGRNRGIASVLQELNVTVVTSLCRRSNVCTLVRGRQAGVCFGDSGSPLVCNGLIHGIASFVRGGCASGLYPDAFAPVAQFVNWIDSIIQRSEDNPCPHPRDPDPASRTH
Test: Human Neutrophil Elastase Assay
Conditions: Neutrophil Elastase assay; substrate MeOSuc-Ala-Ala-Pro-Val-AMC 250 μM; 15 min preincubation, 60 min incubation at room temperature; pH 7.5
Result type: IC50 (nM)

Observe how each entry below is paired with its result.
# Compound, Unit label, IC50
measured = [
    ("Cc1c(-c2ccnc(C(F)(F)F)c2)c(=O)c(C(=O)NCC(N)=O)cn1C(C)c1ccc(C#N)cc1 (stereo not drawn) [Example 9.18]", "nM", 7.5),
    ("CNC(=O)c1cn(C(C)c2ccc(C#N)cc2)c(C)c(-c2cccc(C)c2)c1=O (stereo not drawn) [Example 29]", "nM", 14.4),
    ("CCS(=O)(=O)c1cc(C#N)ccc1Cn1cc(C(=O)NC)c(=O)c(-c2cccc(C(F)(F)F)c2)c1C [Example 26]", "nM", 10.8),
    ("Cc1c(-c2ccnc(C(F)(F)F)c2)c(=O)c(C(=O)NC2CNC(=O)C2)cn1C(C)c1ccc(C#N)cc1 (stereo not drawn) [Example 9.8]", "nM", 4.2),
    ("Cc1c(-c2ccnc(C(F)(F)F)c2)c(=O)c(C(=O)NC2CCCC2O)cn1C(C)c1ccc(C#N)cc1 (stereo not drawn) [Example 9.36]", "nM", 33.9),
    ("Cc1c(-c2cccc(C(F)(F)F)c2)c(=O)c(C(=O)NCCn2cccn2)cn1Cc1ccc(C#N)cc1 [Example 1.30]", "nM", 17.1),
    ("Cc1c(-c2cccc(C(F)(F)F)c2)c(=O)c(C(=O)NCc2ccc(S(C)(=O)=O)cc2)cn1Cc1ccc(Cl)cc1 [Example 2.7]", "nM", 6.9),
    ("Cc1nc(CNC(=O)c2cn(C(C)c3ccc(C#N)cc3)c(C)c(-c3cccc(C(F)F)c3)c2=O)no1 (stereo not drawn) [Example 8.23]", "nM", 3.4),
]

a. Cc1c(-c2cccc(C(F)(F)F)c2)c(=O)c(C(=O)NCC(C)O)cn1C(C)c1ccc(C#N)cc1 (stereo not drawn) [Example 7.14]
b. Cc1c(-c2cccc(C(F)F)c2)c(=O)c(C(=O)NCCCO)cn1C(C)c1ccc(C#N)cc1 (stereo not drawn) [Example 8.4]
Which of the two gives a bigger number for IC50: a or b ? Let me know the label of the one you choose.
a

I. Cc1c(-c2cccc(C(F)(F)F)c2)c(=O)c(C(=O)NCC2CCCO2)cn1Cc1ccc(C#N)cc1 (stereo not drawn) [Example 1.47]
II. Cc1c(-c2ccnc(C(F)(F)F)c2)c(=O)c(C(=O)NC2CCCC2O)cn1C(C)c1ccc(C#N)cc1 (stereo not drawn) [Example 9.41]
Which of the two gives a bigger number for IC50: I or II ? Let me know the label of the one you choose.
II
